- study conditions: in cyclohexanone, 303.15 K
readout type: solubility (mole fraction)
Answer with the value's number alone.

compound COCCOC(=O)C1=C(C)NC(C)=C(C(=O)OC(C)C)C1c1cccc([N+](=O)[O-])c1 (stereo unspecified) , solubility (mole fraction) observed: 0.0266

---

- study conditions: in ethyl acetate, 308.15 K
readout type: solubility (mole fraction)
Answer with the value's number alone.

molecule COCCOC(=O)C1=C(C)NC(C)=C(C(=O)OC(C)C)C1c1cccc([N+](=O)[O-])c1 (stereo unspecified) , solubility (mole fraction) observed: 0.0028

---

- study conditions: in isopropanol, 293.15 K
readout type: solubility (mole fraction)
Answer with the value's number alone.

molecule COCCOC(=O)C1=C(C)NC(C)=C(C(=O)OC(C)C)C1c1cccc([N+](=O)[O-])c1 (stereo unspecified) , solubility (mole fraction) observed: 0.0163
